Assayed System: T1, O6-bN
T1 chain: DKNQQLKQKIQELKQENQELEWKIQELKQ
Assay Text: two-hybrid library CCNG1;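 note: natural log of median RNA to DNA barcode read ratio; higher means stronger binding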
Parameter threshold = -0.7. Response is Yes when interaction score meets or exceeds it, else No.

>>> class_name("DENQQLEQEIQELEQENQELEWKIQELKQ [O14-bN]")
"Yes"
>>> class_name("DKNQQLKQKIQELKQKNQELKWEIQELEQ [O13-bN]")
"No"

Could you tell me if the measured interaction score of DKNQQLKQENQELEQKIQELKWKIQELKQ [O10-bN] reaches -0.7 or more? Yes

Identify whether the reported interaction score of the following binder is -0.7 or greater: DENQQLEQKNQELKQKIQELKWKIQELKQ [O2-bN] No
